# procedureDetails: Clinical trial APD356-016: plasma and urine pharmacokinetics of lorcaserin, M1 and M5 after a 10 mg dose in subjects with renal impairment
# assayContext: human, plasma, oral, 10 mg, AUC0-t, 10 mg dose; Mild; ideal BW groups
propertyMeasured: AUC(0-t) (ng·h/mL)
The reply should contain only the number, in ng·h/mL.

Lookup: Let me know recorded AUC(0-t) for C[C@H]1CNCCc2ccc(Cl)cc21 , thanks.
Found: 623

###

# procedureDetails: Toxicity studies in mice (determination of NOAEL)
# Assay type: in vivo, mouse
# assayContext: both sexes, mouse, in vivo; mice
propertyMeasured: NOAEL (mg/kg/day)
Entry rule: numbers only, all in mg/kg/day.

Lookup: # return recorded NOAEL for entry C[C@H]1CNCCc2ccc(Cl)cc21 [Lorcaserin]
Found: 50

###

# procedureDetails: Toxicity studies in monkeys (single dose, 28-day, 13-week, 12-month)
# Format: in vivo, cynomolgus monkeys
# assayContext: both sexes, cynomolgus monkey, in vivo, oral; monkeys; 12-month study
propertyMeasured: NOAEL at 12 months (mg/kg/day)
Give the number; mg/kg/day is assumed, so skip it.

Lookup: Please report the measured NOAEL at 12 months for C[C@H]1CNCCc2ccc(Cl)cc21 [Lorcaserin]
Found: 2

###

# procedureDetails: Toxicity studies in rats (determination of NOAEL)
# Format: in vivo
# assayContext: both sexes, rat, in vivo; rats; 13-week and 6-month studies
propertyMeasured: NOAEL
Enter the number, and then the unit.

Lookup: Give NOAEL for C[C@H]1CNCCc2ccc(Cl)cc21
Found: 5 mg/kg/day

###

# procedureDetails: Clinical trial APD356-016: plasma and urine pharmacokinetics of lorcaserin, M1 and M5 after a 10 mg dose in subjects with renal impairment
# assayContext: human, plasma, oral, 10 mg, AUC0-inf, 10 mg dose; Mild; actual BW groups
propertyMeasured: AUC0-inf (ng·h/mL)
Form entry: value (ng·h/mL) — number only.

Lookup: Note AUC0-inf for the compound shown: C[C@H]1CNCCc2ccc(Cl)cc21
Found: 535

###

# procedureDetails: Clinical trial APD356-016: plasma and urine pharmacokinetics of lorcaserin, M1 and M5 after a 10 mg dose in subjects with renal impairment
# assayContext: human, plasma, oral, 10 mg, tmax, 10 mg dose; Moderate; ideal BW groups; median
propertyMeasured: tmax
Enter the number, and then the unit.

Lookup: Tell me measured tmax for C[C@H]1CNCCc2ccc(Cl)cc21 please.
Found: 2.5 h

###

# procedureDetails: Clinical trial APD356-016: plasma and urine pharmacokinetics of lorcaserin, M1 and M5 after a 10 mg dose in subjects with renal impairment
# assayContext: human, plasma, oral, 10 mg, Vz/F, 10 mg dose; Normal; ideal BW groups
propertyMeasured: Vd/F
Answer with the figure and its unit, nothing else.

Lookup: Give Vd/F for C[C@H]1CNCCc2ccc(Cl)cc21
Found: 276 L

###

# procedureDetails: Clinical trial APD356-016: plasma and urine pharmacokinetics of lorcaserin, M1 and M5 after a 10 mg dose in subjects with renal impairment
# assayContext: human, plasma, oral, 10 mg, Cmax, 10 mg dose; Mild; actual BW groups
# Protocol: The interaction of renal insufficiency with the pharmacokinetics, tolerability and safety of lorcaserin were evaluated in a formal PK study in subjects with renal impairment and in the populations studied in phase 2 and phase 3 clinical studies. The pharmacokinetic properties of lorcaserin in subjects with varying degrees of renal impairment were evaluated in clinical trial APD356-016. […]
propertyMeasured: Cmax (ng/mL)
Numbers only; they are read as ng/mL.

Lookup: Read off the recorded Cmax for C[C@H]1CNCCc2ccc(Cl)cc21 [Lorcaserin]
Found: 30.2

###

# procedureDetails: Clinical trial APD356-016: plasma and urine pharmacokinetics of lorcaserin, M1 and M5 after a 10 mg dose in subjects with renal impairment
# assayContext: human, plasma, 10 mg, AUC24 hr, Normal; 10 mg QD Authentic; Day 1
propertyMeasured: AUC(0-t) (ng·h/mL)
Expressed in ng·h/mL, but write only the number.

Lookup: Tell me its AUC(0-t) given C[C@H]1CNCCc2ccc(Cl)cc21 as the entry.
Found: 482

###

# procedureDetails: Clinical trial APD356-016: plasma and urine pharmacokinetics of lorcaserin, M1 and M5 after a 10 mg dose in subjects with renal impairment
# assayContext: human, plasma, oral, 10 mg, AUC0-inf, 10 mg dose; Moderate; ideal BW groups
propertyMeasured: AUC0-inf (ng·h/mL)
Give the value in ng·h/mL but do not write ng·h/mL after it.

Lookup: Tell me its AUC0-inf given C[C@H]1CNCCc2ccc(Cl)cc21 as the entry.
Found: 538

###

# procedureDetails: Clinical trial APD356-016: plasma and urine pharmacokinetics of lorcaserin, M1 and M5 after a 10 mg dose in subjects with renal impairment
# assayContext: human, plasma, oral, 10 mg, Cmax, 10 mg dose; Moderate; ideal BW groups
propertyMeasured: Cmax (ng/mL)
Your answer should be a plain number; it is taken to be in ng/mL.

Lookup: Look up Cmax of C[C@H]1CNCCc2ccc(Cl)cc21 [Lorcaserin] and report it.
Found: 26.2

###

# procedureDetails: Clinical trial APD356-016: plasma and urine pharmacokinetics of lorcaserin, M1 and M5 after a 10 mg dose in subjects with renal impairment
# assayContext: human, plasma, oral, 10 mg, AUC0-t, 10 mg dose; Mild; actual BW groups
propertyMeasured: AUC(0-t) (ng·h/mL)
// units = ng·h/mL; emit number, no label

Lookup: Supply reported AUC(0-t) belonging to this compound: C[C@H]1CNCCc2ccc(Cl)cc21
Found: 513

###

# procedureDetails: Clinical trial APD356-016: plasma and urine pharmacokinetics of lorcaserin, M1 and M5 after a 10 mg dose in subjects with renal impairment
# assayContext: human, plasma, 10 mg, AUC24 hr, Moderate; 10 mg QD Authentic; Day 1
propertyMeasured: AUC(0-t)
# number then unit; no other words

Lookup: Fill in reported AUC(0-t) for this entry: C[C@H]1CNCCc2ccc(Cl)cc21 [Lorcaserin]
Found: 515 ng·h/mL

###

# procedureDetails: Clinical trial APD356-016: plasma and urine pharmacokinetics of lorcaserin, M1 and M5 after a 10 mg dose in subjects with renal impairment
# assayContext: human, plasma, oral, 10 mg, AUC0-t, 10 mg dose; Moderate; actual BW groups
propertyMeasured: AUC(0-t) (µg·h/mL)
Give just the number in µg·h/mL; leave the unit off.

Lookup: Given the molecule C[C@H]1CNCCc2ccc(Cl)cc21 , write its reported AUC(0-t).
Found: 0.497

###

# procedureDetails: Clinical trial APD356-016: plasma and urine pharmacokinetics of lorcaserin, M1 and M5 after a 10 mg dose in subjects with renal impairment
# assayContext: human, plasma, oral, 10 mg, MRTinf, 10 mg dose; Normal; ideal BW groups
propertyMeasured: MRT inf (h)
Return type: number; implicit unit h.

Lookup: Give reported MRT inf value for C[C@H]1CNCCc2ccc(Cl)cc21 [Lorcaserin]
Found: 14.8

###

# procedureDetails: Clinical trial APD356-016: plasma and urine pharmacokinetics of lorcaserin, M1 and M5 after a 10 mg dose in subjects with renal impairment
# assayContext: human, plasma, oral, 10 mg, AUC0-inf, 10 mg dose; Mild; ideal BW groups
propertyMeasured: AUC0-inf (ng·h/mL)
Give the quantity in ng·h/mL, number only.

Lookup: Retrieve AUC0-inf measured for C[C@H]1CNCCc2ccc(Cl)cc21 and print it.
Found: 644

###

# procedureDetails: Clinical trial APD356-016: plasma and urine pharmacokinetics of lorcaserin, M1 and M5 after a 10 mg dose in subjects with renal impairment
# assayContext: human, plasma and urine, oral, 10 mg, ClR/F, 10 mg dose; Normal; ideal BW groups
propertyMeasured: CL renal
Form field: result (number plus unit)

Lookup: Respond only with CL renal recorded for C[C@H]1CNCCc2ccc(Cl)cc21
Found: 6.53 mL/min

###

# procedureDetails: Clinical trial APD356-016: plasma and urine pharmacokinetics of lorcaserin, M1 and M5 after a 10 mg dose in subjects with renal impairment
# assayContext: human, plasma, 10 mg, t1/2, Mild; 10 mg QD Authentic; Day 1
propertyMeasured: half-life (h)
# value in h; strip the unit string

Lookup: Output measured half-life for this item: C[C@H]1CNCCc2ccc(Cl)cc21 [Lorcaserin]
Found: 13

###

# procedureDetails: Clinical trial APD356-016: plasma and urine pharmacokinetics of lorcaserin, M1 and M5 after a 10 mg dose in subjects with renal impairment
# assayContext: human, plasma, oral, 10 mg, AUC0-inf, 10 mg dose; Normal; ideal BW groups
propertyMeasured: AUC0-inf (ng·h/mL)
Number only, in ng·h/mL; omit the unit.

Lookup: // Input: C[C@H]1CNCCc2ccc(Cl)cc21 . Output its AUC0-inf only.
Found: 501

###

# procedureDetails: Clinical trial APD356-016: plasma and urine pharmacokinetics of lorcaserin, M1 and M5 after a 10 mg dose in subjects with renal impairment
# assayContext: human, plasma and urine, oral, 10 mg, ClR/F, 10 mg dose; Mild; ideal BW groups
propertyMeasured: CL renal (mL/min)
Quick reminder: number only, in mL/min, skip the unit.

Lookup: // Input: C[C@H]1CNCCc2ccc(Cl)cc21 . Output its CL renal only.
Found: 8.88

FYI, the data here is from patent US8999970B2.
